biological target: M-phase inducer phosphatase 2 (Homo sapiens) + Cyclin-dependent kinase 2 (Homo sapiens) + Cyclin-A2 (Homo sapiens) (UniProt P30305+P24941+P20248); test: primary biochemical HTRF screen for inhibition of M-phase inducer phosphatase 2 binding to cyclin-dependent kinase 2/cyclin A (AID 1259370); conditions: HTRF CDC25B-CDK2/CyclinA binding, anti-His/anti-Flag; hits give high values
About 680 (0.72%) of roughly 94,000 compounds were called active. Only a selection was taken, and actives are over-represented in it overall.
quantity measured: z-score
The response must contain the number and no unit.

[
  {
    "compound": "COc1ccc(S(=O)(=O)N(C(=O)c2ccncc2)c2ccc3oc(=O)sc3c2)cc1OC",
    "z-score": -3.46
  }
]

Q) Give the measured z-score of "O=C1c2cccnc2C(=O)N1c1ccc(-c2nc3ccccc3o2)cc1" .
A) 1.03

Q) Give the measured z-score of "COC(=O)c1ccc2snnc2c1" .
A) -0.98

Q) Give the measured z-score of COc1cccc(CC2C(=O)Nc3ccccc32)c1OC (stereo unspecified) .
A) -0.98

Q) Give the measured z-score of "CC(C)CC(=O)Nc1ccc2nsnc2c1" .
A) -1.58

Q) Give the measured z-score of "O=C(c1cccnc1)N(c1ccc2oc(=O)sc2c1)S(=O)(=O)c1ccccc1" .
A) -1.85

* * *

target: M-phase inducer phosphatase 2 (Homo sapiens) + Cyclin-dependent kinase 2 (Homo sapiens) + Cyclin-A2 (Homo sapiens) (UniProt P30305+P24941+P20248); experiment: primary biochemical HTRF screen for inhibition of M-phase inducer phosphatase 2 binding to cyclin-dependent kinase 2/cyclin A (AID 1259370); settings: HTRF CDC25B-CDK2/CyclinA binding, anti-His/anti-Flag
Screen size: about 94,000 compounds; about 680 (0.72%) were called active. Rule as the data show it: active = z-score above about 3.2; inactive = the rest. This is one part of a sample in which actives are shown more often than they occur.
Classes to choose from: T for active, F for inactive

[
  {
    "compound": "c1cc(CNCc2ccc3c(c2)OCO3)ccn1",
    "qualitative label": "F"
  },
  {
    "compound": "Cc1cc(=O)nc2c3ccccc3n(CC(=O)NC3CCC(C)CC3)n12 (configuration not stated)",
    "qualitative label": "F"
  },
  {
    "compound": "C=C1c2cc(OCC)ccc2NC(=O)N1c1ccc(Cl)cc1",
    "qualitative label": "F"
  },
  {
    "compound": "CCC(C)NC(=O)C1=CC(c2cccs2)=NS(=O)(=O)N1C (configuration not stated)",
    "qualitative label": "F"
  },
  {
    "compound": "CCc1cc2c(cc3c(=O)n(CC(=O)NCCCOC)nc(CC)n32)s1",
    "qualitative label": "F"
  },
  {
    "compound": "O=C(COc1ccc(Cl)cc1)Oc1ccc2ccccc2c1",
    "qualitative label": "F"
  },
  {
    "compound": "C#CCSc1nc2c(c(=O)[nH]1)C(c1ccc(OCCCC)cc1)CC(=O)N2 (configuration not stated)",
    "qualitative label": "F"
  },
  {
    "compound": "C#CCSc1nc2c(c(=O)[nH]1)C(c1ccc(O)c(O)c1)CC(=O)N2 (configuration not stated)",
    "qualitative label": "T"
  },
  {
    "compound": "Cc1nc2ccccc2nc1NO",
    "qualitative label": "F"
  },
  {
    "compound": "COc1ccc(S(=O)(=O)NC(C)c2nc(-c3ccc(C)cc3)no2)cc1 (configuration not stated)",
    "qualitative label": "F"
  }
]

Q) For "COc1cccc(CNCc2ccc3c(c2)OCO3)c1" , what call appears in the results of this test?
A) F

Q) For "Cn1c(=O)n(C)c2cc(S(=O)(=O)Nc3ccc(F)cc3)ccc21" , what call appears in the results of this test?
A) F

Data origin, for the record: PubChem BioAssay AID1259370
